Data origin, for the record: Sander's compilation of Henry's law constants (doi:10.1016/s0378-3812(99)00193-4)

protocol.description: Henry solubility constant Hcp at 298.15 K (mol/(m3 Pa))
assay.context: reference: Ryu and Park (1999)
measured.endpoint: Henry solubility constant Hcp
Give bare numbers.

{"smiles.input": "CCc1ccccc1", "Henry solubility constant Hcp": 0.0011}
{"smiles.input": "Cc1ccc(C)cc1", "Henry solubility constant Hcp": 0.0014}
{"smiles.input": "ClC(Cl)(Cl)Cl", "Henry solubility constant Hcp": 0.00038}
{"smiles.input": "CCCCCCC", "Henry solubility constant Hcp": "4.5e-06"}
{"smiles.input": "CCCCCCCC", "Henry solubility constant Hcp": "3.4e-06"}
{"smiles.input": "CCCCCc1ccccc1", "Henry solubility constant Hcp": 0.00061}
{"smiles.input": "c1ccccc1", "Henry solubility constant Hcp": 0.0017}
{"smiles.input": "CCCCCC", "Henry solubility constant Hcp": "6.1e-06"}
{"smiles.input": "ClC=C(Cl)Cl", "Henry solubility constant Hcp": 0.00095}
{"smiles.input": "CCCCCCCCC", "Henry solubility constant Hcp": "2.2e-06"}

For each of the compounds below, note its Henry solubility constant Hcp.
1. Cc1ccccc1
2. CCCCc1ccccc1

Output:
1. 0.0015
2. 0.00074
